Origin of measurements: paper PMC9599461

Tested on: OCT2 wild-type versus A270S variant
Assay: Stereoselective uptake into OCT2 A270S variant-overexpressing HEK293 cells
Conditions: human
Observation Type: selectivity ratio at 2 min, 100 μM
Please give the numeric answer without any surrounding text.

Need selectivity ratio at 2 min, 100 μM of NC[C@H](O)c1ccc(O)cc1 [(R)-Octopamine] , thanks.
1.2

Param item = NC[C@@H](O)c1ccc(O)cc1 [(S)-Octopamine] ; retrieve measured selectivity ratio at 2 min, 100 μM.
1.17

====

Tested on: OCT2 A270S variant
Assay: Stereoselective uptake into OCT2 A270S variant-overexpressing HEK293 cells;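 note: uptake into HEK293 cells stably overexpressing human OCT2 variants, intracellular enantiomers quantified by chiral HPLC-MS/MS and normalized to total protein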
Conditions: human, HEK293 cells stably overexpressing human OCT2 A270S variant
Observation Type: selectivity ratio at 2 min, 100 μM
Give the value as a plain number.

Can you look up the measured selectivity ratio at 2 min, 100 μM of NCC(O)c1ccc(O)cc1 (stereo not shown) for me?
1.69

====

Biological target: DAT (Homo sapiens)
Sequence (Q01959 whole entry): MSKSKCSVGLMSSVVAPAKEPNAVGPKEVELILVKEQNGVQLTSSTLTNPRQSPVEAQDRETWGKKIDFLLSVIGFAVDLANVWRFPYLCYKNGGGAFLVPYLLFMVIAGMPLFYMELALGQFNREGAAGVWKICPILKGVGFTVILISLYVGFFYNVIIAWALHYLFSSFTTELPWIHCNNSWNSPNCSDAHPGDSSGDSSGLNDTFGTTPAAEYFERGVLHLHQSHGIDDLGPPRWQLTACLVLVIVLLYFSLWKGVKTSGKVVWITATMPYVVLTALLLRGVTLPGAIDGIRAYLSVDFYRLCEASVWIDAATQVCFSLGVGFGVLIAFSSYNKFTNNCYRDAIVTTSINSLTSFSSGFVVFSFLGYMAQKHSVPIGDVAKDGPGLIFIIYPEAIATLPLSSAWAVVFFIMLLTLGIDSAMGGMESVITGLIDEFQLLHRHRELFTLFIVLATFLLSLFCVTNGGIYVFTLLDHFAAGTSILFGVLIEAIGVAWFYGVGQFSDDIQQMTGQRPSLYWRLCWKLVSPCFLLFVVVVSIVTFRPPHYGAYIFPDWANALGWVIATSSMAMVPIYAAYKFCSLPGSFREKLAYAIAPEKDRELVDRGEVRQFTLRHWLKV
Test: Stereoselective uptake into DAT-overexpressing HEK293 cells;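 note: intracellular accumulation measured by chiral HPLC-MS/MS in stably transfected HEK293 cells, normalized to total protein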
Details: DAT; quotient of vmax over Km
Observation Type: Clint ± SEM

# query: Clint ± SEM | item NC[C@H](O)c1ccc(O)cc1 [(R)-Octopamine] | system: DAT (Homo sapiens)
100 mL × g Protein^−1 × min^−1

API: value(readout=Clint ± SEM, system=DAT (Homo sapiens)) for record NCC(O)c1cccc(O)c1 (single isomer, unassigned) [Norphenylephrine-1, Norphenylephrine]
128 mL × g Protein^−1 × min^−1

Form entry - test system: DAT (Homo sapiens); read-out: Clint ± SEM; compound: CNC[C@@H](O)c1ccc(O)cc1 [(S)-Synephrine]
10.4 mL × g Protein^−1 × min^−1

# value lookup — system DAT (Homo sapiens), readout Clint ± SEM, item NC[C@@H](O)c1ccccc1 [(S)-Bisnorephedrine]
6.15 mL × g Protein^−1 × min^−1

Query for DAT (Homo sapiens): what Clint ± SEM does the record show for NC[C@H](O)c1ccccc1 [(R)-Bisnorephedrine] ?
6.21 mL × g Protein^−1 × min^−1

Tell me reported Clint ± SEM for CNC[C@H](O)c1cccc(O)c1 [(R)-Phenylephrine] , tested with DAT (Homo sapiens).
17.2 mL × g Protein^−1 × min^−1

What value of Clint ± SEM on DAT (Homo sapiens) does NC[C@@H](O)c1ccc(O)cc1 [(S)-Octopamine] have?
100 mL × g Protein^−1 × min^−1

State its Clint ± SEM on DAT (Homo sapiens): NC[C@@H](O)c1ccc(O)c(O)c1 [(S)-Norepinephrine]
155.5 ± 21.4 mL × g Protein^−1 × min^−1

Query Clint ± SEM on DAT (Homo sapiens) for NC[C@H](O)c1ccc(O)c(O)c1 [(R)-Norepinephrine]
138.8 ± 19.7 mL × g Protein^−1 × min^−1

Recorded Clint ± SEM for NCC(O)c1cccc(O)c1 (single isomer, unassigned) [Norphenylephrine-2, Norphenylephrine] with DAT (Homo sapiens), please?
167 mL × g Protein^−1 × min^−1

====

Molecular target: OCT2 (Homo sapiens)
Sequence (O15244 whole entry S270A): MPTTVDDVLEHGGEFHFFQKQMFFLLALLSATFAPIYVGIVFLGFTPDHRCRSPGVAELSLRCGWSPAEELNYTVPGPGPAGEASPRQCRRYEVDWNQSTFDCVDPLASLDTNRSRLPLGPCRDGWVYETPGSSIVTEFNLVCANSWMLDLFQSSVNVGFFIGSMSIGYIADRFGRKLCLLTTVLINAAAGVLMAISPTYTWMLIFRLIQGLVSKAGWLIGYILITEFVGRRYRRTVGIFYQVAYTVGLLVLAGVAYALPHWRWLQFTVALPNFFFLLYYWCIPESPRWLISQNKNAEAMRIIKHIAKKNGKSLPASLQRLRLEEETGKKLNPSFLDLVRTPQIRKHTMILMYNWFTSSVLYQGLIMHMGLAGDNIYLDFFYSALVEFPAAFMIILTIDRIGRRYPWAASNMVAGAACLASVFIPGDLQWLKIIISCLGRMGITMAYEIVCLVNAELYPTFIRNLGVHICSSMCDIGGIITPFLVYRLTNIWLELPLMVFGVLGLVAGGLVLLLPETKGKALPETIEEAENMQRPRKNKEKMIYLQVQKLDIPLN
Test: Stereoselective uptake into OCT2 (wild-type)-overexpressing HEK293 cells
Details: human, Stereoselectivity Km, OCT2; ratio between enantiomers, given as for (S) or for 2 (second-eluting)
Observation Type: selectivity ratio at 2 min

Using the record for CNCC(O)c1ccc(O)c(OC)c1 (single isomer, unassigned) , report its selectivity ratio at 2 min.
1.25

Tell me the measured selectivity ratio at 2 min of CNCC(O)c1ccccc1 (centres unmarked) , please.
1.5
